Test system: Plasmodium berghei
Assay details: Luciferase/luciferin-expressing antifolate-resistant parasites were used to infect a culture of HepG2 cells that were pre-incubated with compounds. Infected hepatocytes emit light due to the luciferase reaction. Assay results are presented as the percent inhibition of light emission compared to control. […]
Format: functional
Study conditions: sporozoite, read-out: LUCIFERASE INFECTION ASSAY - IC90
Parameter measured: IC90 (µM)
Express your answer in µM, writing the number without its unit.

Compound: O=C(CN1CCC(c2c[nH]c3ccccc23)CC1)Nc1ccc(Cl)c([N+](=O)[O-])c1
Result number: 9.15
--
Compound: Oc1c(C(c2ccc(Br)cc2)N2CCCC2)cc(Cl)c2cccnc12 (stereo not given)
Result number: 4.01
--
Compound: CCOC(=O)c1c(NC(=O)C[n+]2ccc(Cc3ccccc3)cc2)sc(C)c1C
Result number: 8.6

Please turn your attention to the following entry.
Which IC90 is listed for O=C(Nc1cc(Cl)cc(Cl)c1)c1cc(Cl)c(-n2cccc2)c(Cl)c1 ? 4.35

* * *

Tested on: Plasmodium berghei
Assay details: Luciferase/luciferin-expressing antifolate-resistant parasites were used to infect a culture of HepG2 cells that were pre-incubated with compounds. Infected hepatocytes emit light due to the luciferase reaction. Assay results are presented as the percent inhibition of light emission compared to control. […]
Format: functional
Study conditions: sporozoite, PBLUC_HILL_SLOPE 5.54, PBLUC_R_SQUARED 0.0475, read-out: LUCIFERASE INFECTION ASSAY - IC50
pIC50: −log10 of the molar value.
Parameter measured: pIC50

Which pIC50 is listed for CCC(Nc1nc(C(F)(F)F)nc2ccccc12)c1ccc(Br)cc1 (stereo unspecified) ? < 5.00

* * *

System: Plasmodium berghei
Assay details: Luciferase/luciferin-expressing antifolate-resistant parasites were used to infect a culture of HepG2 cells that were pre-incubated with compounds. Infected hepatocytes emit light due to the luciferase reaction. Assay results are presented as the percent inhibition of light emission compared to control. […]
Assay type: functional
Study conditions: sporozoite, HEPG2TOX_HILL_SLOPE 4.63, HEPG2TOX_R_SQUARED 0.595, PBLUC_HILL_SLOPE 15.4, PBLUC_R_SQUARED 0.531, read-out: LUCIFERASE INFECTION ASSAY - IC50
Parameter measured: pIC50
On this scale, pIC50 is minus log10 of a concentration expressed in M (mol/L).

Which pIC50 is listed for CCS(=O)(=O)c1ncc(Cl)c(C(=O)Nc2cc(Cl)cc(Cl)c2)n1 ? 5.56

* * *

System: Plasmodium berghei
Assay details: Luciferase/luciferin-expressing antifolate-resistant parasites were used to infect a culture of HepG2 cells that were pre-incubated with compounds. Infected hepatocytes emit light due to the luciferase reaction. Assay results are presented as the percent inhibition of light emission compared to control. […]
Assay type: functional
Study conditions: sporozoite, PBLUC_HILL_SLOPE 15.5, PBLUC_R_SQUARED 0.301, read-out: LUCIFERASE INFECTION ASSAY - IC50
Parameter measured: pIC50
On this scale, pIC50 is minus log10 of a concentration expressed in M (mol/L).

Which pIC50 is listed for O=C(Cc1ccc(-c2ccccc2)cc1)NCc1cn2ccccc2n1 ? 5.05

* * *

Tested on: Plasmodium berghei
Assay details: Luciferase/luciferin-expressing antifolate-resistant parasites were used to infect a culture of HepG2 cells that were pre-incubated with compounds. Infected hepatocytes emit light due to the luciferase reaction. Assay results are presented as the percent inhibition of light emission compared to control. […]
Assay type: functional
Study conditions: sporozoite, HEPG2TOX_HILL_SLOPE 6.77, HEPG2TOX_R_SQUARED 0.465, read-out: LUCIFERASE INFECTION ASSAY - IC50
pIC50: −log10 of the molar value.
Parameter measured: pIC50

I'm curious: which pIC50 was measured for O=[N+]([O-])c1ccc(N2CCN(c3ncccc3C(F)(F)F)CC2)nc1 tested on Plasmodium berghei? < 5.03
